# protocol: activity coefficient (dimensionless); of the first substance listed, at infinite dilution; xn = mol fraction of the nth substance listed
# condition parameters: 343.15 K; 101 kPa; Liquid; Chromatography; x1 = 0
result type: activity coefficient

{"compound": "Cc1ccccc1 [toluene] + CCC[N+]1(C)CCCC1.O=S(=O)([N-]S(=O)(=O)C(F)(F)F)C(F)(F)F", "result type": "activity coefficient", "result": 1.45}
{"compound": "CC(C)CC(C)(C)C [2,2,4-trimethylpentane] + CCCC[N+]1(C)CCCC1.O=S(=O)([N-]S(=O)(=O)C(F)(F)F)C(F)(F)F", "result type": "activity coefficient", "result": 17.1}
{"compound": "C=CCCCC [hex-1-ene] + CCC[N+]1(C)CCCC1.O=S(=O)([N-]S(=O)(=O)C(F)(F)F)C(F)(F)F", "result type": "activity coefficient", "result": 7.65}
{"compound": "CCC(C)=O [butanone] + CCC[N+]1(C)CCCC1.O=S(=O)([N-]S(=O)(=O)C(F)(F)F)C(F)(F)F", "result type": "activity coefficient", "result": 0.64}
{"compound": "CCCCCCC [heptane] + CCCC[N+]1(C)CCCC1.O=S(=O)([N-]S(=O)(=O)C(F)(F)F)C(F)(F)F", "result type": "activity coefficient", "result": 17.5}
{"compound": "ClC(Cl)Cl [trichloromethane] + CCC[N+]1(C)CCCC1.O=S(=O)([N-]S(=O)(=O)C(F)(F)F)C(F)(F)F", "result type": "activity coefficient", "result": 0.96}
{"compound": "C#CCCCC [1-hexyne] + CCC[N+]1(C)CCCC1.O=S(=O)([N-]S(=O)(=O)C(F)(F)F)C(F)(F)F", "result type": "activity coefficient", "result": 3.01}
{"compound": "CO [methanol] + CCCC[N+]1(C)CCCC1.O=S(=O)([N-]S(=O)(=O)C(F)(F)F)C(F)(F)F", "result type": "activity coefficient", "result": 1.18}
{"compound": "CC(C)O [propan-2-ol] + CCC[N+]1(C)CCCC1.O=S(=O)([N-]S(=O)(=O)C(F)(F)F)C(F)(F)F", "result type": "activity coefficient", "result": 1.62}
{"compound": "ClC(Cl)Cl [trichloromethane] + CCCC[N+]1(C)CCCC1.O=S(=O)([N-]S(=O)(=O)C(F)(F)F)C(F)(F)F", "result type": "activity coefficient", "result": 0.88}
{"compound": "Cc1ccccc1C [1,2-dimethylbenzene] + CCC[N+]1(C)CCCC1.O=S(=O)([N-]S(=O)(=O)C(F)(F)F)C(F)(F)F", "result type": "activity coefficient", "result": 1.87}
{"compound": "c1ccsc1 [thiophene] + CCC[N+]1(C)CCCC1.O=S(=O)([N-]S(=O)(=O)C(F)(F)F)C(F)(F)F", "result type": "activity coefficient", "result": 0.89}
{"compound": "CC(C)OC(C)C [diisopropyl ether] + CCCC[N+]1(C)CCCC1.O=S(=O)([N-]S(=O)(=O)C(F)(F)F)C(F)(F)F", "result type": "activity coefficient", "result": 5.4}
{"compound": "CCC(C)CC [3-methylpentane] + CCC[N+]1(C)CCCC1.O=S(=O)([N-]S(=O)(=O)C(F)(F)F)C(F)(F)F", "result type": "activity coefficient", "result": 11.7}

----------
Reported activity coefficient by item:
# protocol: activity coefficient (dimensionless); of the first substance listed, at infinite dilution; xn = mol fraction of the nth substance listed
# condition parameters: 333.15 K; 101 kPa; Liquid; Chromatography; x1 = 0
result type: activity coefficient

{"compound": "CCC[N+](=O)[O-] [1-nitropropane] + CCC[N+]1(C)CCCC1.O=S(=O)([N-]S(=O)(=O)C(F)(F)F)C(F)(F)F", "measured number": 0.77}
{"compound": "ClC(Cl)Cl [trichloromethane] + CCC[N+]1(C)CCCC1.O=S(=O)([N-]S(=O)(=O)C(F)(F)F)C(F)(F)F", "measured number": 0.91}
{"compound": "c1ccsc1 [thiophene] + CCC[N+]1(C)CCCC1.O=S(=O)([N-]S(=O)(=O)C(F)(F)F)C(F)(F)F", "measured number": 0.88}
{"compound": "C#CCCCCC [1-heptyne] + CCCC[N+]1(C)CCCC1.O=S(=O)([N-]S(=O)(=O)C(F)(F)F)C(F)(F)F", "measured number": 3.98}
{"compound": "C#CCCCC [1-hexyne] + CCCC[N+]1(C)CCCC1.O=S(=O)([N-]S(=O)(=O)C(F)(F)F)C(F)(F)F", "measured number": 2.87}
{"compound": "CCCO [propan-1-ol] + CCCC[N+]1(C)CCCC1.O=S(=O)([N-]S(=O)(=O)C(F)(F)F)C(F)(F)F", "measured number": 1.87}
{"compound": "c1ccncc1 [pyridine] + CCC[N+]1(C)CCCC1.O=S(=O)([N-]S(=O)(=O)C(F)(F)F)C(F)(F)F", "measured number": 0.63}

----------
# protocol: activity coefficient (dimensionless); of the first substance listed, at infinite dilution; xn = mol fraction of the nth substance listed
# condition parameters: 343.15 K; 101 kPa; Liquid; Chromatography; x1 = 0
Decision: activity coefficient beneath 2 gives Criterion met; activity coefficient meeting or exceeding 2 gives Criterion not met.

{"molecule": "c1ccccc1 [benzene] + CCCC[N+]1(C)CCCC1.O=S(=O)([N-]S(=O)(=O)C(F)(F)F)C(F)(F)F", "assigned class": "Criterion met"}
{"molecule": "CCOCC [diethyl ether] + CCC[N+]1(C)CCCC1.O=S(=O)([N-]S(=O)(=O)C(F)(F)F)C(F)(F)F", "assigned class": "Criterion not met"}
{"molecule": "CCO [ethanol] + CCC[N+]1(C)CCCC1.O=S(=O)([N-]S(=O)(=O)C(F)(F)F)C(F)(F)F", "assigned class": "Criterion met"}
{"molecule": "C1CCCCCC1 [cycloheptane] + CCCC[N+]1(C)CCCC1.O=S(=O)([N-]S(=O)(=O)C(F)(F)F)C(F)(F)F", "assigned class": "Criterion not met"}
{"molecule": "CCCCCC [hexane] + CCC[N+]1(C)CCCC1.O=S(=O)([N-]S(=O)(=O)C(F)(F)F)C(F)(F)F", "assigned class": "Criterion not met"}
{"molecule": "Cc1ccc(C)cc1 [1,4-dimethylbenzene] + CCCC[N+]1(C)CCCC1.O=S(=O)([N-]S(=O)(=O)C(F)(F)F)C(F)(F)F", "assigned class": "Criterion met"}
{"molecule": "C#CCCCC [1-hexyne] + CCCC[N+]1(C)CCCC1.O=S(=O)([N-]S(=O)(=O)C(F)(F)F)C(F)(F)F", "assigned class": "Criterion not met"}

----------
# protocol: activity coefficient (dimensionless); of the first substance listed, at infinite dilution; xn = mol fraction of the nth substance listed
# condition parameters: 323.15 K; 101 kPa; Liquid; Chromatography; x1 = 0
Reported activity coefficient by item:

{"compound": "CCCCCCCCCC [decane] + CCCC[N+]1(C)CCCC1.O=S(=O)([N-]S(=O)(=O)C(F)(F)F)C(F)(F)F", "activity coefficient": 54.3}
{"compound": "Cc1ccccc1 [toluene] + CCC[N+]1(C)CCCC1.O=S(=O)([N-]S(=O)(=O)C(F)(F)F)C(F)(F)F", "activity coefficient": 1.37}
{"compound": "CC1CCCC1 [methylcyclopentane] + CCC[N+]1(C)CCCC1.O=S(=O)([N-]S(=O)(=O)C(F)(F)F)C(F)(F)F", "activity coefficient": 10.3}
{"compound": "Cc1ccc(C)cc1 [1,4-dimethylbenzene] + CCCC[N+]1(C)CCCC1.O=S(=O)([N-]S(=O)(=O)C(F)(F)F)C(F)(F)F", "activity coefficient": 1.78}
{"compound": "CCCCCCCCCCCC [dodecane] + CCCC[N+]1(C)CCCC1.O=S(=O)([N-]S(=O)(=O)C(F)(F)F)C(F)(F)F", "activity coefficient": 105}
{"compound": "CCC(C)=O [butanone] + CCC[N+]1(C)CCCC1.O=S(=O)([N-]S(=O)(=O)C(F)(F)F)C(F)(F)F", "activity coefficient": 0.57}
{"compound": "CC(C)CC(C)(C)C [2,2,4-trimethylpentane] + CCCC[N+]1(C)CCCC1.O=S(=O)([N-]S(=O)(=O)C(F)(F)F)C(F)(F)F", "activity coefficient": 19.2}
{"compound": "CCC(=O)CC [pentan-3-one] + CCC[N+]1(C)CCCC1.O=S(=O)([N-]S(=O)(=O)C(F)(F)F)C(F)(F)F", "activity coefficient": 0.84}
{"compound": "C#CCCCC [1-hexyne] + CCC[N+]1(C)CCCC1.O=S(=O)([N-]S(=O)(=O)C(F)(F)F)C(F)(F)F", "activity coefficient": 3.35}
{"compound": "CCCC(C)=O [pentan-2-one] + CCC[N+]1(C)CCCC1.O=S(=O)([N-]S(=O)(=O)C(F)(F)F)C(F)(F)F", "activity coefficient": 0.88}
{"compound": "CCCO [propan-1-ol] + CCC[N+]1(C)CCCC1.O=S(=O)([N-]S(=O)(=O)C(F)(F)F)C(F)(F)F", "activity coefficient": 2.17}
{"compound": "CC(C)O [propan-2-ol] + CCCC[N+]1(C)CCCC1.O=S(=O)([N-]S(=O)(=O)C(F)(F)F)C(F)(F)F", "activity coefficient": 1.9}
{"compound": "ClC(Cl)(Cl)Cl [tetrachloromethane] + CCC[N+]1(C)CCCC1.O=S(=O)([N-]S(=O)(=O)C(F)(F)F)C(F)(F)F", "activity coefficient": 2.55}
{"compound": "c1ccncc1 [pyridine] + CCCC[N+]1(C)CCCC1.O=S(=O)([N-]S(=O)(=O)C(F)(F)F)C(F)(F)F", "activity coefficient": 0.59}
{"compound": "CC(C)OC(C)C [diisopropyl ether] + CCCC[N+]1(C)CCCC1.O=S(=O)([N-]S(=O)(=O)C(F)(F)F)C(F)(F)F", "activity coefficient": 5.19}
{"compound": "CCC(C)CC [3-methylpentane] + CCC[N+]1(C)CCCC1.O=S(=O)([N-]S(=O)(=O)C(F)(F)F)C(F)(F)F", "activity coefficient": 14.3}
{"compound": "C#CCCCC [1-hexyne] + CCCC[N+]1(C)CCCC1.O=S(=O)([N-]S(=O)(=O)C(F)(F)F)C(F)(F)F", "activity coefficient": 2.89}
{"compound": "CCOCC [diethyl ether] + CCCC[N+]1(C)CCCC1.O=S(=O)([N-]S(=O)(=O)C(F)(F)F)C(F)(F)F", "activity coefficient": 2.53}
{"compound": "C1COCCO1 [1,4-dioxane] + CCCC[N+]1(C)CCCC1.O=S(=O)([N-]S(=O)(=O)C(F)(F)F)C(F)(F)F", "activity coefficient": 0.71}
{"compound": "CCO [ethanol] + CCCC[N+]1(C)CCCC1.O=S(=O)([N-]S(=O)(=O)C(F)(F)F)C(F)(F)F", "activity coefficient": 1.73}
{"compound": "CCCCCCCCC [nonane] + CCCC[N+]1(C)CCCC1.O=S(=O)([N-]S(=O)(=O)C(F)(F)F)C(F)(F)F", "activity coefficient": 42.7}
{"compound": "c1ccccc1 [benzene] + CCCC[N+]1(C)CCCC1.O=S(=O)([N-]S(=O)(=O)C(F)(F)F)C(F)(F)F", "activity coefficient": 0.92}
{"compound": "ClC(Cl)Cl [trichloromethane] + CCCC[N+]1(C)CCCC1.O=S(=O)([N-]S(=O)(=O)C(F)(F)F)C(F)(F)F", "activity coefficient": 0.83}
{"compound": "CC1CCCCC1 [methylcyclohexane] + CCC[N+]1(C)CCCC1.O=S(=O)([N-]S(=O)(=O)C(F)(F)F)C(F)(F)F", "activity coefficient": 14.1}
{"compound": "c1ccncc1 [pyridine] + CCC[N+]1(C)CCCC1.O=S(=O)([N-]S(=O)(=O)C(F)(F)F)C(F)(F)F", "activity coefficient": 0.63}
{"compound": "CC(C)CO [2-methyl-1-propanol] + CCCC[N+]1(C)CCCC1.O=S(=O)([N-]S(=O)(=O)C(F)(F)F)C(F)(F)F", "activity coefficient": 2.37}
{"compound": "C1CCCCC1 [cyclohexane] + CCC[N+]1(C)CCCC1.O=S(=O)([N-]S(=O)(=O)C(F)(F)F)C(F)(F)F", "activity coefficient": 10.2}
{"compound": "CCN(CC)CC [triethylamine] + CCC[N+]1(C)CCCC1.O=S(=O)([N-]S(=O)(=O)C(F)(F)F)C(F)(F)F", "activity coefficient": 8.98}
{"compound": "CCCCCCC [heptane] + CCCC[N+]1(C)CCCC1.O=S(=O)([N-]S(=O)(=O)C(F)(F)F)C(F)(F)F", "activity coefficient": 19.7}
